Where these numbers come from: ChEMBL document CHEMBL5724696

In this section we review reported autophagy induction values for a set of compounds.
System: U2OS
test details: Here: values are normalized to the negative (DMSO; defined as 0% autophagy induction) and positive (250nM Torin1; mTOR inhibitor; defined as maximal inducer of autophagy = 100%) control compounds and represented as % of autophagy induction. […] The impact of autophagy induction on cells is complex and depends on the affected target. As such, the magnitude of a phenotype may not be equally mirrored in the %-value of autophagy induction and vice versa. The dynamics of the induction may indicate the mode of activation: e.g. activation via phosphorylation or a signaling cascade may occur fast, while activation via transcription factors may take considerably longer. […] Of note, treatment concentrations may be sub-optimal for specific compounds, leading to false negative annotations.
Type: functional, Homo sapiens
condition info: Compound Concentration 0.5 uM, Timepoint 24 hours, Culturing Media DMEM, 1 % Penicillin/Streptomycin, 10% Fetal bovin serum Add-On: No, Screening Media Control DMEM, Screening Media Samples DMEM
result type: autophagy induction (%)

> print(dat)
                                   compound          result.type  value.measured
1  O=C(Cc1ccccc1)Nc1nc2ccc(Cl)cc2c2nc(-c3ccco3)nn12  autophagy induction          -4.076
2  Cc1cn2cc(CC(=O)N3CCC4(CC3)CN(Cc3ccc(-n5nccn5)cc3Cl)C4)nc2s1  autophagy induction          -3.762
3  CCCCCNC(=O)NS(=O)(=O)c1cc([N+](=O)[O-])ccc1NC1CCCCC1  autophagy induction          -2.287
4  CS(=O)(=O)NC[C@H]1CC[C@H](Nc2nc3c(s2)CCSc2ccccc2-3)CC1  autophagy induction          -2.571
5  CC(C)(N)C(=O)N[C@H](COCc1ccccc1)C(=O)N1CCC2(CC1)CN(S(C)(=O)=O)c1ccccc12.CS(=O)(=O)O [IBUTAMOREN MESYLATE]  autophagy induction          -2.852
6  Cc1c(F)cccc1NC(=O)Nc1ccc(Cl)c(S(=O)(=O)[C@H]2CCCNC2)c1O [DANIRIXIN]  autophagy induction          -2.873
7  Cc1nc(C(=O)N2CCC[C@H]2Cc2nnc(-c3ccccc3)o2)c(-c2ccccc2F)s1  autophagy induction         -0.2081
8  CCC[C@H](Oc1cc(C)c(-n2cc(C(F)(F)F)cn2)c(C)c1)c1ccc(C(=O)NCCC(=O)O)cc1 [PF-06291874]  autophagy induction          -2.993
9    N[C@H](C(=O)O)c1ccc(C(=O)O)c(C(=O)O)c1  autophagy induction          -5.676

* * *

Test system: TERT-RPE1
test details: Here: values are normalized to the negative (DMSO; defined as 0% autophagy induction) and positive (250nM Torin1; mTOR inhibitor; defined as maximal inducer of autophagy = 100%) control compounds and represented as % of autophagy induction. […] The impact of autophagy induction on cells is complex and depends on the affected target. As such, the magnitude of a phenotype may not be equally mirrored in the %-value of autophagy induction and vice versa. The dynamics of the induction may indicate the mode of activation: e.g. activation via phosphorylation or a signaling cascade may occur fast, while activation via transcription factors may take considerably longer. […] Of note, treatment concentrations may be sub-optimal for specific compounds, leading to false negative annotations.
Format: functional, Homo sapiens
condition info: Compound Concentration 10 uM, Timepoint 60 hours, Culturing Media DMEM/F12 (1:1), 1 % Penicillin/Streptomycin, 10% Fetal bovin serum Add-On: No, Screening Media Control DMEM/F12 (1:1), Screening Media Samples DMEM/F12 (1:1)
Reported autophagy induction values for the following compounds.
result type: autophagy induction (%)

> print(dat)
                                    compound  target.of.assay  value.measured
 1  Cc1c(C2=CCN(C(=O)N(C)C(C)C)CC2)nnn1-c1cccnc1F        TERT-RPE1           3.817
 2  O=C(O)C1CN(Cc2ccc(-c3nc4cc(Cc5ccccc5F)ccc4s3)c(F)c2)C1        TERT-RPE1         -6.2118
 3  C[C@H](CO)Nc1nc(SCc2cccc(Cl)c2F)nc2[nH]c(=O)sc12        TERT-RPE1        -13.8782
 4  Cc1nc(C(=O)N2CCC[C@H]2Cc2nnc(-c3ccccc3)o2)c(-c2ccccc2F)s1        TERT-RPE1           3.905
 5  Cc1c(P(=S)(c2ccccc2)c2ccccc2)n2ccccc2[n+]1C/C=C/c1ccccc1.[Br-]        TERT-RPE1         96.4076
 6  O=C1N/C(=N/c2ccccc2F)S/C1=C\c1ccc(C(=O)O)cc1        TERT-RPE1        -11.0664
 7  CNc1nc(NCc2ccc(NS(C)(=O)=O)cc2Cl)cc(-c2ccccn2)n1        TERT-RPE1          56.217
 8  O=C(O)C1CN(Cc2ccc(OCc3ccc(Cl)c(Cl)c3)cc2)C1        TERT-RPE1         -2.7926
 9  N#Cc1c[nH]c2c(C(=O)N3CCN(CCc4ccc(F)cc4)CC3)cccc12 [PRUVANSERIN]        TERT-RPE1         -3.5258
10  CSc1ccc(C(=O)N[C@@H]2CCCC[C@@H]2NC(=O)CNC(=O)c2cc(C(F)(F)F)ccc2NC(=O)NC(C)C)cc1        TERT-RPE1          -2.567
11  CN(C)S(=O)(=O)c1ccc(NC(=S)N2CCC(C(O)(c3ccccc3)c3ccccc3)CC2)cc1        TERT-RPE1          -2.059
12  N#Cc1cccc(C(=O)Nc2cc(-c3ccccc3)nn2-c2ccccc2)c1        TERT-RPE1          -1.999
13  COC1CCN(c2cccc(-c3cc(NC(C)=O)nc(-n4nc(C)cc4C)n3)n2)CC1        TERT-RPE1         52.8636

* * *

Test system: U2OS
test details: Here: values are normalized to the negative (DMSO; defined as 0% autophagy induction) and positive (250nM Torin1; mTOR inhibitor; defined as maximal inducer of autophagy = 100%) control compounds and represented as % of autophagy induction. […] The impact of autophagy induction on cells is complex and depends on the affected target. As such, the magnitude of a phenotype may not be equally mirrored in the %-value of autophagy induction and vice versa. The dynamics of the induction may indicate the mode of activation: e.g. activation via phosphorylation or a signaling cascade may occur fast, while activation via transcription factors may take considerably longer. […] Of note, treatment concentrations may be sub-optimal for specific compounds, leading to false negative annotations.
Assay type: functional, Homo sapiens
condition info: Compound Concentration 2 uM, Timepoint 36 hours, Culturing Media DMEM, 1 % Penicillin/Streptomycin, 10% Fetal bovin serum Add-On: No, Screening Media Control DMEM, Screening Media Samples DMEM
result type: autophagy induction (%)

> print(dat)
                                   compound  value.measured
1  CC(C)C[C@H](NC(=O)N1CCCCCC1)C(=O)N[C@H](Cc1cn(C)c2ccccc12)C(=O)N[C@H](Cc1ccccn1)C(=O)O         -0.3512
2  COc1ccc(Br)cc1S(=O)(=O)NC(=O)/C=C/c1ccccc1Cc1ccc2ccccc2c1          -1.876
3  COc1cc(-n2cnc3cc(-c4ccc(Cl)cc4)sc3c2=O)ccc1OCCN1CCCC1          0.6188
4  N#Cc1c[nH]c2c(C(=O)N3CCN(CCc4ccc(F)cc4)CC3)cccc12          -3.588
5  c1cc(CN2CCCNCCNCCCNCC2)ccc1CN1CCCNCCNCCCNCC1        -61.4276
6  COc1cccc(-c2c(C)n(Cc3c(F)cccc3C(F)(F)F)c(=O)n(C[C@H](NCCCC(=O)[O-])c3ccccc3)c2=O)c1F.[Na+] [ELAGOLIX SODIUM]          -4.643
7  C[C@H](Cc1cc2c(c(C(N)=O)c1)N(CCCO)CC2)NCCOc1ccccc1OCC(F)(F)F          -2.301
8  Cc1cc(C)cc(C(=O)N(C)[C@H](Cc2ccc(-c3ccccc3)cc2)C(=O)N[C@@H](Cc2c[nH]c3ccccc23)C(=O)O)c1        -0.01148

* * *

Tested on: TERT-RPE1
test details: Here: values are normalized to the negative (DMSO; defined as 0% autophagy induction) and positive (250nM Torin1; mTOR inhibitor; defined as maximal inducer of autophagy = 100%) control compounds and represented as % of autophagy induction. […] The impact of autophagy induction on cells is complex and depends on the affected target. As such, the magnitude of a phenotype may not be equally mirrored in the %-value of autophagy induction and vice versa. The dynamics of the induction may indicate the mode of activation: e.g. activation via phosphorylation or a signaling cascade may occur fast, while activation via transcription factors may take considerably longer. […] Of note, treatment concentrations may be sub-optimal for specific compounds, leading to false negative annotations.
Assay type: functional, Homo sapiens
condition info: Compound Concentration 1 uM, Timepoint 60 hours, Culturing Media DMEM/F12 (1:1), 1 % Penicillin/Streptomycin, 10% Fetal bovin serum Add-On: No, Screening Media Control DMEM/F12 (1:1), Screening Media Samples DMEM/F12 (1:1)
result type: autophagy induction (%)

> print(dat)
                           substance.smiles  unit.of.measure  value.measured
1  COC(=O)c1sccc1S(=O)(=O)Nc1ccc(Nc2ccccc2)cc1OC                %        -15.7117
2  O=C(NCCS(=O)(=O)c1ccc(C(F)(F)F)cn1)c1ccc(Cl)cc1                %         10.0166
3    O=C(O)Cc1cc(I)c(Oc2ccc(O)c(I)c2)c(I)c1                %         11.3725
